Molecular target: T1, human GIP receptor (GIP-R) (human, UniProt P48546 22-466)
T1 sequence (looked up): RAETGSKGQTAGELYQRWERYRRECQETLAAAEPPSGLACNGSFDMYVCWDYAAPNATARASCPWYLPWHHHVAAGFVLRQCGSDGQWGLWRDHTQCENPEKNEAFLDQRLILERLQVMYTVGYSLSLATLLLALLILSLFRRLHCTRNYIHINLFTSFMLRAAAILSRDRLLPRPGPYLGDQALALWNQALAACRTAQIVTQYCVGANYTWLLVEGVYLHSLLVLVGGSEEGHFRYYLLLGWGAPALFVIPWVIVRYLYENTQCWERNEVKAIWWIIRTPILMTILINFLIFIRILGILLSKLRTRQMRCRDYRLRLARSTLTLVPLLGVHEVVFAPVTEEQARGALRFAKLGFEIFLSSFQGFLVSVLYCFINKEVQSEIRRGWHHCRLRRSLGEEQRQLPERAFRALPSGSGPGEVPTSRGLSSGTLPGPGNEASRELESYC
Assay: cell-based or functional assay
Square brackets hold non-standard residues; d marks the D form. Ends that are not written are not given here. * marks the point of attachment. Palmitoyl = CCCCCCCCCCCCCCCC(=O)*; Hyp = O=C(O)[C@@H]1C[C@@H](O)CN1
What cAMP response in presence of 10^-7 M GIP (% GIP max) was measured for each of the following?
// return numeric value only (unit: % GIP max, not printed)

Form field cAMP response in presence of 10^-7 M GIP (% GIP max), entry YAYGTFISDYSIAMDKIHQQDFVNWLLAQKGKKNDWKHNITQ [(Tyr^3)GIP] : 76

Form field cAMP response in presence of 10^-7 M GIP (% GIP max), entry YAPGTFISDYSIAMDKIHQQDFVNWLLAQKGKKNDWKHNITQ [(Pro^3)GIP] : 66

Form field cAMP response in presence of 10^-7 M GIP (% GIP max), entry YAWGTFISDYSIAMDKIHQQDFVNWLLAQKGKKNDWKHNITQ [(Trp^3)GIP] : 78

Form field cAMP response in presence of 10^-7 M GIP (% GIP max), entry YA[Hyp]GTFISDYSIAMDK(Palmitoyl)IHQQDFVNWLLAQKGKKNDWKHNITQ [(Hyp^3)LysPAL^16GIP] : 48

Form field cAMP response in presence of 10^-7 M GIP (% GIP max), entry YAPGTFISDYSIAMDK(Palmitoyl)IHQQDFVNWLLAQKGKKNDWKHNITQ [(Pro^3)LysPAL^16GIP] : 63

Form field cAMP response in presence of 10^-7 M GIP (% GIP max), entry YAAGTFISDYSIAMDKIHQQDFVNWLLAQKGKKNDWKHNITQ [(Ala^3)GIP] : 88

Form field cAMP response in presence of 10^-7 M GIP (% GIP max), entry YAFGTFISDYSIAMDKIHQQDFVNWLLAQKGKKNDWKHNITQ [(Phe^3)GIP] : 62

Form field cAMP response in presence of 10^-7 M GIP (% GIP max), entry YAKGTFISDYSIAMDKIHQQDFVNWLLAQKGKKNDWKHNITQ [(Lys^3)GIP] : 63.5

Form field cAMP response in presence of 10^-7 M GIP (% GIP max), entry YA[Hyp]GTFISDYSIAMDKIHQQDFVNWLLAQKGKKNDWKHNITQ [(Hyp^3)GIP] : 56
